Molecular target: SARS-COV-2 3CLpro/Mpro protease (Severe acute respiratory syndrome coronavirus 2 (2019-nCoV) (SARS-CoV-2))
Assay: Inhibitory effect on SARS-COV-2 3CLpro/Mpro protease by fluorescence resonance energy transfer
Format: biochemical
Conditions: activity intervals A-D, read-out: IC50 (nM), Inhibition on SARS-CoV-2 3CLpro/Mpro protease
REPORTED_METRIC: IC50

Would you please look over these solved cases?
>>> result("CNc1cncc(C(=O)N2C[C@H](Nc3c(C(=O)N4C[C@@H](C)O[C@@H](C)C4)cc(Br)cc3[N+](=O)[O-])C[C@H]2C(=O)Nc2ccc(C(F)(F)F)nc2)c1")
"100 to 200 nM"
>>> result("CNc1cncc(C(=O)N2CCC[C@@H](Nc3c(C(=O)N4CCC5(CCCCO5)CC4)cc(Br)cc3[N+](=O)[O-])C2)c1")
"10 to 50 nM"
>>> result("O=C(c1cc(Br)cc([N+](=O)[O-])c1N[C@@H]1CCCN(C(=O)C2CNCC(F)(F)C2)C1)N1CCCCC1 (stereo partly shown)")
"10 to 50 nM"

We now examine a further molecule.
Query: IC50; subject: CNc1cncc(C(=O)N2C[C@H](Nc3c(C(=O)N4CCCC(F)(F)C4)cc(Br)cc3[N+](=O)[O-])C[C@H]2C(=O)Nc2nn(C)cc2Br)c1
50 to 100 nM

Hello, the source for this data is patent US20250042889A1, in case you need it.
